Test system: 186277-243-T-J2-PDC complex spheroid viability;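 also: spheroids exposed to drugs for 7 days; 100% = DMSO vehicle control viability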
Test: Anticancer human tumor 186277-243-T-J2-PDC patient-derived colon adenocarcinoma cell line growth inhibition [GQUAD]
Settings: second compound 1 µM; first compound 3.16 µM; active compounds read low
Source text: DNA G-quadruplex Stabilizer Agents in Combinations in Complex Spheroids A high-throughput screen of multi-cell type tumor spheroids was designed to identify active combinations of DNA G-quadruplex stabilizer agents and targeted small molecules. […] Compounds. […] If the clinical Cmax for an agent had not been determined, the highest concentration tested was 10 microM. […]
# viability, T/C per entry
quantity: viability, T/C (%)

compound="Cc1cccc(N(C)C(=O)C2C(O)CCN2c2nc(C)cc(C(F)(F)F)c2C#N)c1 (stereo not given) + CN(C)c1ccc(Nc2c3ccc(NC(=O)CCN4CCCC4)cc3nc3cc(NC(=O)CCN4CCCC4)ccc23)cc1" unit_symbol=% test_result=102
compound="CCCS(=O)(=O)Nc1ccc(F)c(C(=O)c2c[nH]c3ncc(-c4ccc(Cl)cc4)cc23)c1F + CN(C)c1ccc(Nc2c3ccc(NC(=O)CCN4CCCC4)cc3nc3cc(NC(=O)CCN4CCCC4)ccc23)cc1" unit_symbol=% test_result=83
compound="COc1cccc2c1C(=O)c1c(O)c3c(c(O)c1C2=O)CC(O)(C(=O)CO)CC3OC1CC(N)C(O)C(C)O1 (stereo not given) + CN(C)c1ccc(Nc2c3ccc(NC(=O)CCN4CCCC4)cc3nc3cc(NC(=O)CCN4CCCC4)ccc23)cc1" unit_symbol=% test_result=0.37
compound="O=C(c1cc(Cc2n[nH]c(=O)c3ccccc23)ccc1F)N1CCN(C(=O)C2CC2)CC1 + CN(C)c1ccc(Nc2c3ccc(NC(=O)CCN4CCCC4)cc3nc3cc(NC(=O)CCN4CCCC4)ccc23)cc1" unit_symbol=% test_result=89.9
compound="COc1cc(C2c3cc4c(cc3C(OC3OC5COC(C)OC5C(O)C3O)C3COC(=O)C23)OCO4)cc(OC)c1O (stereo not given) + CN(C)c1ccc(Nc2c3ccc(NC(=O)CCN4CCCC4)cc3nc3cc(NC(=O)CCN4CCCC4)ccc23)cc1" unit_symbol=% test_result=32.9
